The measured values listed here are drawn from patent US9615577B2.

- System: Alopecurus myosuroides (ALOMY)
- Assay Notes: Test 1A glasshouse assay for herbicidal activity, pre-emergence
- Assay type: in vivo
- Conditions Used: 312 h, 250 g/ha, evaluated after 13 days, read-out: percentage phytotoxicity ALOMY
Would you mind telling me the reported pest or weed control at 250 g/ha of each entry?
One number for each entry, in %.

>>> recorded_measurement("CC#Cc1cc(Cl)c(C2C(=O)C3CCC(C)(C2=O)C3(C)C)c(OC)c1 (stereo not shown)")
90
>>> recorded_measurement("CC#Cc1cc(C)c(C2C(=O)CC(CCSC)CC2=O)c(C)c1 (stereo not shown)")
100
>>> recorded_measurement("CC#Cc1ccc(C2C(=O)C3CCC(C3)C2=O)c(Cl)c1 (stereo not shown)")
100
>>> recorded_measurement("C#Cc1cc(Cl)c(C2C(=O)CC3(CCOCC3)CC2=O)c(OC)c1")
90
>>> recorded_measurement("CC#Cc1cc(Cl)c(C2C(=O)CC(CCSC)CC2=O)c(OC)c1 (stereo not shown)")
90
>>> recorded_measurement("C#Cc1cc(Cl)c(C2C(=O)CCCC2=O)c(OC)c1")
60
>>> recorded_measurement("CC#Cc1cc(C)c(C2C(=O)CC(CC3CCOCC3)CC2=O)c(C)c1 (stereo not shown)")
100
>>> recorded_measurement("Cc1cc(C#CCl)cc(C)c1C1C(=O)CC(CC2CCOCC2)CC1=O (stereo not shown)")
90

Give pest or weed control at 250 g/ha for all compounds that follow.
1. CC#Cc1cc(Cl)c(C2C(=O)C3CCC(C3)C2=O)c(OCC(F)(F)F)c1 (stereo not shown)
2. CC#Cc1cc(Cl)c(C2C(=O)C3CCC(C3)C2=O)c(CC)c1 (stereo not shown)

Reply:
40
100

Provide reported pest or weed control at 250 g/ha for each item, in the same order as listed.
1. CC#Cc1cc(Cl)c(C2C(=O)C3CCC(C3)C2=O)c(OC)c1 (stereo not shown)
2. CC#Cc1cc(C)c(C2C(=O)C3CCC(C3)C2=O)c(C)c1 (stereo not shown)
3. CC#Cc1cc(Cl)c(C2=C(OC(=O)c3ccc(Cl)cc3)CC(C3CCOCC3)CC2=O)c(OC)c1 (stereo not shown)
4. CC#Cc1cc(C)c(C2=C(OS(C)(=O)=O)CC(CC3CCOCC3)CC2=O)c(C)c1 (stereo not shown)
5. Cc1cc(C#CCl)cc(C)c1C1C(=O)C2CCC(C2)C1=O (stereo not shown)
6. CC#Cc1cc(C)c(C2C(=O)CC(CC(C)SC)CC2=O)c(C)c1 (stereo not shown)

Reply:
100
100
100
80
100
90

###

- Tested on: Echinochloa crus-galli (ECHCG)
- Assay Notes: Test 1B glasshouse assay for herbicidal activity, post-emergence
- Format: in vivo
- Conditions Used: Echinochloa crus-galli, 60 g/ha application rate
- Excerpt: Seeds of a variety of monocotyledonous and dicotyledonous test plants are sown in standard soil in pots. […] Note: The herbicidal activity data (e.g. post-emergence) shown above in Biological Example 1B for Comparator compounds X-9 and X-10 is thought likely to have been measured some years ago, probably using a variant of the above-described test method. […]
So I've got a bunch of compounds here, and I need their pest or weed control at 60 g/ha values.
Record the result as number plus unit.

>>> recorded_measurement("Cc1cc(C#CCl)cc(C)c1C1C(=O)C2CCC(C2)C1=O (stereo not drawn)")
"90%"
>>> recorded_measurement("CCc1cc(C)cc(CC)c1C1C(=O)C2CCC(C2)C1=O (stereo not drawn) [Compound X-10, reference compound]")
"70%"
>>> recorded_measurement("Cc1cc(C)c(C2C(=O)C3CCC(C3)C2=O)c(C)c1 (stereo not drawn) [Compound X-9, reference compound]")
"40%"
>>> recorded_measurement("CC#Cc1ccc(C2C(=O)C3CCC(C3)C2=O)c(C)c1 (single isomer, unassigned)")
"100%"
>>> recorded_measurement("CC#Cc1cc(C)c(C2C(=O)C3CCC(C3)C2=O)c(C)c1 (stereo not drawn)")
"100%"

Query: Quick one: pest or weed control at 60 g/ha for CC#Cc1ccc(C2C(=O)C(C)(C)OC(C)(C)C2=O)c(C)c1 ?
Reply: 90%
